The reported numbers originate from ChEMBL document CHEMBL3433997.

Quick reference for inhibition among some compounds
Molecular target: Hexose transporter 1 (Plasmodium falciparum)
Assay: ST_JUDE_LEISH: Cytotoxicity at 2uM final concentration against transgenic Leishmania Mexicana promastigotes LmPfHT that are glucose transport deficient and complemented with the Plasmodium falciparum hexose transporter. Activity is measured by DNA content using SYBR green in vitro
Assay type: functional
Field format: number, assumed %, no unit text.

Answered examples (3):
{"Compound": "Cc1ccc(NC(=O)NC2CCN(CCCCCNC(=O)C3CC3c3ccc(Cl)c(Cl)c3)CC2)cc1 (stereo not given)", "Endpoint value": -2.29}
{"Compound": "CCC(C)NS(=O)(=O)c1ccc2nc(Nc3cccc(SC)c3)n(C(C)C(C)C)c2c1 (stereo not given)", "Endpoint value": 4.3}
{"Compound": "CN1CCC(Oc2cc(NC(=O)Nc3ccc(-c4ccncc4)c(C(F)(F)F)c3)ccc2Cl)CC1", "Endpoint value": 10.6}

Ask: Item `Cc1cccc(CNc2nc(C)cc(N[C@@H](CC(C)C)C(=O)NCc3cccc(F)c3)n2)c1` has what recorded inhibition?
Result: 3.4

Ask: Next: `FC(F)(F)c1cccc(CCNc2nccc(NCc3ccc(Cl)cc3Cl)n2)c1`
Result: 6.08
